- assay_protocol: compound effects on lung adenocarcinoma cell viability – A549, calcein-AM fluorescence, 48 h, basal, profiling panel (AID 1162); note: test concentration not given here
- experimental_parameters: higher = more signal
Quick reference for z-score among some molecules

[
  {
    "molecule": "COC(=O)C/C=C/C[C@]1(O)C(=O)N(C)c2ccccc21",
    "z-score": 1.59
  },
  {
    "molecule": "COc1cc(C(O)C2C=CC3C(=O)N(C)C(=O)C3N2Nc2ccccc2)cc(OC)c1OC (stereo not drawn)",
    "z-score": 0.212
  },
  {
    "molecule": "COc1ccc([Si](C)(C)[C@H]2[C@H](CC(=O)N3Cc4ccccc4C[C@H]3CO)O[C@@]3(C(=O)N(Cc4ccc(N5CCOC5=O)cc4)c4ccccc43)[C@@H]2C)cc1",
    "z-score": -0.135
  }
]
